# method notes: acute toxicity LD50 (ip) in mice
# assay conditions: mouse, in vivo
result type: LD50

Let me know recorded LD50 for `NC(=O)CCc1cc[nH]c1` , thanks.
> 200 mg/kg

Numbers sourced from patent US5336783A.
